Data origin, for the record: patent US20220089609A1

Where a name gives a salt, the structure may show the parent alone.
Listing of entries alongside the reported melting point.

# annotated cases, reported melting point shown
[[record]]
compound = "Cc1cc(CN2CCN(C)CC2)cc2c(=O)[nH]c(-c3cc4ccsc4cn3)nc12 (as salt: hydrochloride) [Compound 132, dihydrochloride]"
readout = "melting point"
result = "> 250 °C"

[[record]]
compound = "Cl.O=c1[nH]c(-c2cc3ccsc3cn2)nc2ccc(OCCCc3cnccn3)cc12"
readout = "melting point"
result = "230 to 240 °C"

[[record]]
compound = "COCC1CCN(Cc2cc(C)c3nc(-c4cc5sccc5cn4)[nH]c(=O)c3c2)CC1 (as salt: hydrochloride)"
readout = "melting point"
result = "200 to 210 °C"

[[record]]
compound = "COc1cc(CCN2CCOCC2)cc2c(=O)[nH]c(-c3cc(C(F)(F)F)ccn3)nc12.Cl"
readout = "melting point"
result = "> 250 °C"

[[record]]
compound = "Cc1cc(OCC2(F)CCOC2)cc2c(=O)[nH]c(-c3cc(C(F)(F)F)ccn3)nc12 (stereo not drawn)"
readout = "melting point"
result = "188 to 195 °C"

[[record]]
compound = "Cc1cc(CN2CCOCC2)cc2c(=O)[nH]c(-c3cc4cccn4cn3)nc12.Cl"
readout = "melting point"
result = "> 250 °C"

[[record]]
compound = "Cc1nc(-c2nc3ccc(OCCCc4ccncc4)cc3c(=O)[nH]2)co1 (as salt: hydrochloride)"
readout = "melting point"
result = "> 250 °C"

[[record]]
compound = "Cc1cc(CCN2CCCCC2)cc2c(=O)[nH]c(-c3cnc4sccc4c3)nc12.Cl"
readout = "melting point"
result = "> 250 °C"


GET /values?readout=melting point&item= COc1cnccc1CCCOc1ccc2nc(-c3cc4ccsc4cn3)[nH]c(=O)c2c1.Cl 250 to 251 °C

Look up melting point: Cl.O=c1[nH]c(-c2ccccn2)nc2ccc(OCCCc3ccncc3)cc12 > 250 °C

----------
Molecular target: human mGluR4 (hmGluR4) (Homo sapiens, UniProt Q14833)
Sequence (Q14833 33-912): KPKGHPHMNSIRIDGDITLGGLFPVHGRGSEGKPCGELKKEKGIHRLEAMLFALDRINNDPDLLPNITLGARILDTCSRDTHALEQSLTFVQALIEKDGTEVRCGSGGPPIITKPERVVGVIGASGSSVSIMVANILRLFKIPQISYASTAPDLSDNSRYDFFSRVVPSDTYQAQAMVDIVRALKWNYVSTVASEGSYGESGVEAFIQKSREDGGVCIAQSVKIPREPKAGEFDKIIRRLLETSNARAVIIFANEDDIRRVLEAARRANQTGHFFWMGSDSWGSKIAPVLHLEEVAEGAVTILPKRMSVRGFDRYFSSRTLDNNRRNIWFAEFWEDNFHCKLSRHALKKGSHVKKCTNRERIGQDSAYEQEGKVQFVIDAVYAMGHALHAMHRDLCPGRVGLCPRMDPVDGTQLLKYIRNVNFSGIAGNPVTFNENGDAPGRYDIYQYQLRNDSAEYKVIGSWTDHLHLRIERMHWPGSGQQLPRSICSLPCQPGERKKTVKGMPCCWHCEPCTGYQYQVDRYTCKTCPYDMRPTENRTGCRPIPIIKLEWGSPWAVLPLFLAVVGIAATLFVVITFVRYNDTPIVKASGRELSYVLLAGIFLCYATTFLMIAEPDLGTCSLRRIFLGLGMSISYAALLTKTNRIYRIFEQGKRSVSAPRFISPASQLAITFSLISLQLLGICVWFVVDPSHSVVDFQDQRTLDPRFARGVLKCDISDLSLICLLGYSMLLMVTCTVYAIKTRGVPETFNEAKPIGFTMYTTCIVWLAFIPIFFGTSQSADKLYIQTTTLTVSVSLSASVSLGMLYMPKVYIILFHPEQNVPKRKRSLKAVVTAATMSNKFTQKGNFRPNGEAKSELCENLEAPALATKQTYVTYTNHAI
Experiment: Calcium assay EC50 determination, positive allosteric modulator activity on hmGluR4 transiently over-expressed in HEK-293 cells
Settings: PAM mode with EC20 glutamate; hmGluR4 in HEK-293 cells; intracellular calcium (Fluo4AM); read-out: mGluR4 positive allosteric modulator activity, half maximal effective concentration (EC50)
Method: Compounds are tested successively for their agonist and positive allosteric modulator activities on human mGluR4 (hmGluR4) transiently over-expressed in HEK-293 cells. […] Receptor activity is detected by changes in intracellular calcium measured using the fluorescent Ca^2+ sensitive dye, Fluo4AM (Molecular Probes). […] Agonist and positive allosteric modulator activities of compounds are consecutively evaluated on the same cell plate. […]
pEC50: −log10 of the molar value. Counter-ions that a name gives are not always drawn.
readout: pEC50

[[record]]
molecule = "Cc1cc(OCC2CCN(S(C)(=O)=O)CC2)cc2c(=O)[nH]c(-c3cc4ccsc4cn3)nc12"
result = "≥ 7.00"

[[record]]
molecule = "Cc1ccnc(-c2nc3ccc(OCCCc4ccncc4)cc3c(=O)[nH]2)c1 [Compound 11, dihydrochloride]"
result = "6.00 to 7.00"

[[record]]
molecule = "Cc1cc(OCCCc2ccncc2)cc2c(=O)[nH]c(-c3cc4ccsc4cn3)nc12 [Compound 65, hydrochloride]"
result = "≥ 7.00"

[[record]]
molecule = "Cc1cc(CN2CCOC(C)(C)C2)cc2c(=O)[nH]c(-c3cc4sccc4cn3)nc12 [Compound 153, hydrochloride]"
result = "≥ 7.00"

[[record]]
molecule = "Cc1cc(CN2CCCC2)cc2c(=O)[nH]c(-c3cc4sccc4cn3)nc12.Cl [Compound 139, hydrochloride]"
result = "5.00 to 6.00"


Please report the recorded pEC50 for CC(=O)N1CCN(CCOc2cc(C)c3nc(-c4cc5ccsc5cn4)[nH]c(=O)c3c2)CC1 [Compound 97, hydrochloride] . 6.00 to 7.00

Value lookup for pEC50; key = Cc1cc(CC(=O)N2CCOCC2)cc2c(=O)[nH]c(-c3cc4ccsc4cn3)nc12 6.00 to 7.00

// lookup pEC50 for Cc1cc(N2CCC3(CCOCC3)CC2)cc2c(=O)[nH]c(-c3cc4ccsc4cn3)nc12 ≥ 7.00

Name the reported pEC50 value associated with the molecule O=c1[nH]c(-c2cc3sccc3cn2)nc2ccc(OCCc3cccnc3)cc12 [Compound 23, hydrochloride] 6.00 to 7.00

Which pEC50 value is on record for Cc1cc(N2CCC3(CC2)COC3)cc2c(=O)[nH]c(-c3cc4ccsc4cn3)nc12 ? ≥ 7.00

Return reported pEC50; argument: Cc1cc(CCN2CCOCC2)cc2c(=O)[nH]c(-c3cc(C(F)(F)F)ccn3)nc12 [Compound 117, hydrochloride] ≥ 7.00

Any idea what its pEC50 is? The molecule is Cc1cc(CN2CCC3(CC2)COC3)cc2c(=O)[nH]c(-c3cc4sccc4cn3)nc12 ≥ 7.00

Please give the measured pEC50 for this molecule: Cc1cc(CCN2CC3(COC3)C2)cc2c(=O)[nH]c(-c3cc4ccsc4cn3)nc12 5.00 to 6.00

Which pEC50 value is on record for Cc1cc(CN2CCS(=O)(=O)CC2)cc2c(=O)[nH]c(-c3cc4sccc4cn3)nc12 ? ≥ 7.00

Query: pEC50; subject: Cc1cc(O[C@H](C)C2CCOCC2)cc2c(=O)[nH]c(-c3cc(C(F)(F)F)ccn3)nc12 6.00 to 7.00

Returns the measured pEC50 for the input molecule. Input: Cc1cc(CCN2CCCOCC2)cc2c(=O)[nH]c(-c3cnc4sccc4c3)nc12 [Compound 121, hydrochloride] 6.00 to 7.00
